# target_entity: Transient receptor potential cation channel subfamily V member 1 (Homo sapiens, UniProt Q8NER1)
# Sequence (Q8NER1 whole entry): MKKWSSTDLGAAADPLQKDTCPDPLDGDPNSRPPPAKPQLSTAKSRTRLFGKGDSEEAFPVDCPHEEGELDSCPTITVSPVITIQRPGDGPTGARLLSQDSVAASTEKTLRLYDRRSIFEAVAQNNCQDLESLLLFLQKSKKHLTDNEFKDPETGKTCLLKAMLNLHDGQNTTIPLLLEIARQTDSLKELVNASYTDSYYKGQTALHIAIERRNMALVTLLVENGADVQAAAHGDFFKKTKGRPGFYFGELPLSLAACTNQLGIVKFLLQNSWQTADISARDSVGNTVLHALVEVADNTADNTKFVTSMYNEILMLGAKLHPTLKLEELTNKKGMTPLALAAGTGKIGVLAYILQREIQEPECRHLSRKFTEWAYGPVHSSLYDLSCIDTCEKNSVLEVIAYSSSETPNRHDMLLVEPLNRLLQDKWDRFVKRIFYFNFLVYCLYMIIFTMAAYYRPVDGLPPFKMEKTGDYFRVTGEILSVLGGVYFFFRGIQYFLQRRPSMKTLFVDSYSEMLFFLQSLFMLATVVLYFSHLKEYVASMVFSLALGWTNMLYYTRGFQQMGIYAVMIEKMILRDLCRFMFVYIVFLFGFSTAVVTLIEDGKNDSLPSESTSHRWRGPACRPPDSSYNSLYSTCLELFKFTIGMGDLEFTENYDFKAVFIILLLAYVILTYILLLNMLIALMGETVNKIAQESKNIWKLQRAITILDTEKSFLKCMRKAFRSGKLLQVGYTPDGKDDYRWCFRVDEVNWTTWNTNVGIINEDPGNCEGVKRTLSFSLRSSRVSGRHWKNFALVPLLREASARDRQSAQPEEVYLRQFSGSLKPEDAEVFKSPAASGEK
# measurement_description: Agonist activity at human TRPV1 receptor expressed in HEK293 cells assessed as increase in intracellular Ca2+ concentration by spectrofluorimetric analysis
quantity_name: EC50 (µM)

The cases that follow already have their EC50 on record.
[
  {
    "mol": "CN(C)C(=O)n1nnnc1Cc1ccc(-c2cccc(O)c2)cc1",
    "EC50 / µM": 25
  },
  {
    "mol": "CN(C)C(=O)n1nnnc1Cc1ccc(-c2cccc(C(N)=O)c2)cc1",
    "EC50 / µM": 32.3
  },
  {
    "mol": "O=C(N1CCCCC1)n1nnnc1Cc1ccc(-c2ccccc2)cc1",
    "EC50 / µM": 5.9
  },
  {
    "mol": "CN(CCCCc1ccccc1)C(=O)n1nnc(Cc2ccc(-c3ccccc3)cc2)n1",
    "EC50 / µM": 1.7
  },
  {
    "mol": "CN(C(=O)n1nnc(Cc2ccc(-c3ccccc3)cc2)n1)C1CCCCC1",
    "EC50 / µM": 0.25
  }
]

[I] CN(C(=O)n1nnnc1Cc1ccc(-c2ccccc2)cc1)C1CCCCC1
[II] Cc1ccc(-c2ccc(Cc3nnnn3C(=O)N(C)C)cc2)cc1
Please compare: I and II . Report which one has the smaller EC50 value. Give the chosen item's label as your response.
I

[I] CN(Cc1ccc2ccccc2c1)C(=O)n1nnc(Cc2ccc(-c3ccccc3)cc2)n1
[II] Cc1ccc(-c2ccc(Cc3nnn(C(=O)N(C)C)n3)cc2)cc1
Compare I and II by numeric EC50 and name the larger one. Give the chosen item's label as your response.
I
(I: 11.9 µM, II: 4.8 µM)

[1] CN(C)C(=O)n1nnc(Cc2ccc(-c3ccccc3)cc2)n1
[2] CN(CCCCc1ccccc1)C(=O)n1nnnc1Cc1ccc(-c2ccccc2)cc1
Please compare: 1 and 2 . Report which one has the smaller EC50 value. Give the chosen item's label as your response.
2

###

# target_entity: Transient receptor potential cation channel subfamily A member 1 (Rattus norvegicus, UniProt Q6RI86)
# measurement_description: Antagonist activity at rat TRPA1 receptor expressed in HEK293 cells assessed as inhibition of allyl isothiocyanate-induced intracellular Ca2+ elevation incubated for 5 mins prior to allyl isothiocyanate-stimulation by spectrofluorimetric analysis
quantity_name: IC50 (µM)

[A] CN(C)C(=O)n1nnnc1Cc1ccc(-c2ccc(CO)cc2)cc1
[B] O=C(N1CCCCC1)n1nnnc1Cc1ccc(-c2ccccc2)cc1
Please compare: A and B . Report which one has the smaller IC50 value. Give the chosen item's label as your response.
B
(B: 12.5 µM, A: 52.6 µM)

[P] CN(C)C(=O)n1nnc(Cc2ccc(-c3ccc(CO)cc3)cc2)n1
[Q] Cc1ccc(-c2ccc(Cc3nnn(C(=O)N(C)C)n3)cc2)cc1
Compare P and Q by numeric IC50 and name the larger one. Give the chosen item's label as your response.
P
(P: 70.6 µM, Q: 10.5 µM)

###

# target_entity: Transient receptor potential cation channel subfamily A member 1 (Rattus norvegicus, UniProt Q6RI86)
# measurement_description: Antagonist activity at rat TRPA1 receptor expressed in HEK293 cells assessed as inhibition of allyl isothiocyanate-induced intracellular Ca2+ elevation incubated for 5 mins prior to allyl isothiocyanate-stimulation by spectrofluorimetric analysis
quantity_name: IC50 (µM)

The cases that follow already have their IC50 on record.
[
  {
    "mol": "CN(CCCCc1ccccc1)C(=O)n1nnc(Cc2ccc(-c3ccccc3)cc2)n1",
    "unit_descriptor": "µM",
    "IC50": 92.1
  },
  {
    "mol": "CN(C)C(=O)n1nnnc1Cc1ccc(-c2ccccc2)cc1",
    "unit_descriptor": "µM",
    "IC50": 49.4
  },
  {
    "mol": "Cc1cccc(-c2ccc(Cc3nnn(C(=O)N(C)C)n3)cc2)c1",
    "unit_descriptor": "µM",
    "IC50": 17.8
  }
]

[A] Cc1ccccc1-c1ccc(Cc2nnn(C(=O)N(C)C)n2)cc1
[B] CN(C)C(=O)n1nnc(Cc2ccc(-c3ccccc3O)cc2)n1
Please compare: A and B . Report which one has the smaller IC50 value. Give the chosen item's label as your response.
A
(A: 18.9 µM, B: 28 µM)

###

# target_entity: UniProt Q8NER1
# measurement_description: Agonist activity at human TRPV1 receptor expressed in HEK293 cells assessed as increase in intracellular Ca2+ concentration by spectrofluorimetric analysis relative to ionomycin
# Assay type: cell-based
Entries annotated with measured Efficacy

[
  {
    "mol": "CN(C)C(=O)n1nnc(Cc2ccc(-c3ccccc3)cc2)n1",
    "observed_value": "14.5%"
  }
]

Looking for the measured Efficacy of Cc1cccc(-c2ccc(Cc3nnnn3C(=O)N(C)C)cc2)c1 , can you help?
< 10%

Looking for the measured Efficacy of CN(C)C(=O)n1nnc(Cc2ccc(-c3cccc(O)c3)cc2)n1 , can you help?
< 10%

###

# target_entity: UniProt P97612
# Sequence (P97612 whole entry): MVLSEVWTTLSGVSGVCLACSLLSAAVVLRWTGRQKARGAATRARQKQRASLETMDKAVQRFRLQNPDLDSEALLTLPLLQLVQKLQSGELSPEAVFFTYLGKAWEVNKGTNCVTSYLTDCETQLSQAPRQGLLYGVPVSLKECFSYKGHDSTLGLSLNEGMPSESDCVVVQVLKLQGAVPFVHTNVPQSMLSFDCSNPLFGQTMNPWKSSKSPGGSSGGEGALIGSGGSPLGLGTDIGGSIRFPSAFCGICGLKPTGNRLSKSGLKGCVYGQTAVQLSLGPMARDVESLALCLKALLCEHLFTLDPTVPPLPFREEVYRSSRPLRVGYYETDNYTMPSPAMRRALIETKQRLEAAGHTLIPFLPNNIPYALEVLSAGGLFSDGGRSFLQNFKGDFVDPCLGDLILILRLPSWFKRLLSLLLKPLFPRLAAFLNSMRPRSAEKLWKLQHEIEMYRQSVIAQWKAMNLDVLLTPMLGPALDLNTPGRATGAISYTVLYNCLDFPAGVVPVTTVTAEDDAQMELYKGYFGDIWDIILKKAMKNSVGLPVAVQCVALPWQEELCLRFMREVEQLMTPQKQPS
# measurement_description: Inhibition of FAAH in rat brain membranes assessed as [14C]AEA hydrolysis to [14C]Ethanolamine after 30 mins by scintillation counting analysis
pIC50: −log10 of the molar value.
quantity_name: pIC50

[
  {
    "mol": "COC(=O)c1cccc(-c2ccc(Cc3nnn(C(=O)N(C)C)n3)cc2)c1",
    "observed_value": 7.91
  },
  {
    "mol": "CN(C(=O)n1nnnc1Cc1ccc(-c2ccccc2)cc1)C1CCCCC1",
    "observed_value": 6.14
  },
  {
    "mol": "Cc1cccc(-c2ccc(Cc3nnn(C(=O)N(C)C)n3)cc2)c1",
    "observed_value": 7.31
  }
]

[a] Cc1cccc(-c2ccc(Cc3nnnn3C(=O)N(C)C)cc2)c1
[b] Cc1ccccc1-c1ccc(Cc2nnnn2C(=O)N(C)C)cc1
Compare a and b by numeric pIC50 and name the larger one. Give the chosen item's label as your response.
a
(a: 8.01, b: 7.45)

[1] CN(C)C(=O)n1nnc(Cc2ccc(-c3ccc(CO)cc3)cc2)n1
[2] CN(C)C(=O)n1nnnc1Cc1ccc(-c2ccccc2O)cc1
Please compare: 1 and 2 . Report which one has the smaller pIC50 value. Give the chosen item's label as your response.
2
(2: 7.81, 1: 8.12)

[1] Cc1ccc(-c2ccc(Cc3nnnn3C(=O)N(C)C)cc2)cc1
[2] CN(Cc1ccc2ccccc2c1)C(=O)n1nnnc1Cc1ccc(-c2ccccc2)cc1
[3] Cc1ccc(-c2ccc(Cc3nnn(C(=O)N(C)C)n3)cc2)cc1
Reorder the items by pIC50, least to greatest. List labels; respect the requested ordering.
2, 3, 1

###

# target_entity: Transient receptor potential cation channel subfamily A member 1 (Rattus norvegicus) (UniProt Q6RI86)
# Sequence (Q6RI86 whole entry): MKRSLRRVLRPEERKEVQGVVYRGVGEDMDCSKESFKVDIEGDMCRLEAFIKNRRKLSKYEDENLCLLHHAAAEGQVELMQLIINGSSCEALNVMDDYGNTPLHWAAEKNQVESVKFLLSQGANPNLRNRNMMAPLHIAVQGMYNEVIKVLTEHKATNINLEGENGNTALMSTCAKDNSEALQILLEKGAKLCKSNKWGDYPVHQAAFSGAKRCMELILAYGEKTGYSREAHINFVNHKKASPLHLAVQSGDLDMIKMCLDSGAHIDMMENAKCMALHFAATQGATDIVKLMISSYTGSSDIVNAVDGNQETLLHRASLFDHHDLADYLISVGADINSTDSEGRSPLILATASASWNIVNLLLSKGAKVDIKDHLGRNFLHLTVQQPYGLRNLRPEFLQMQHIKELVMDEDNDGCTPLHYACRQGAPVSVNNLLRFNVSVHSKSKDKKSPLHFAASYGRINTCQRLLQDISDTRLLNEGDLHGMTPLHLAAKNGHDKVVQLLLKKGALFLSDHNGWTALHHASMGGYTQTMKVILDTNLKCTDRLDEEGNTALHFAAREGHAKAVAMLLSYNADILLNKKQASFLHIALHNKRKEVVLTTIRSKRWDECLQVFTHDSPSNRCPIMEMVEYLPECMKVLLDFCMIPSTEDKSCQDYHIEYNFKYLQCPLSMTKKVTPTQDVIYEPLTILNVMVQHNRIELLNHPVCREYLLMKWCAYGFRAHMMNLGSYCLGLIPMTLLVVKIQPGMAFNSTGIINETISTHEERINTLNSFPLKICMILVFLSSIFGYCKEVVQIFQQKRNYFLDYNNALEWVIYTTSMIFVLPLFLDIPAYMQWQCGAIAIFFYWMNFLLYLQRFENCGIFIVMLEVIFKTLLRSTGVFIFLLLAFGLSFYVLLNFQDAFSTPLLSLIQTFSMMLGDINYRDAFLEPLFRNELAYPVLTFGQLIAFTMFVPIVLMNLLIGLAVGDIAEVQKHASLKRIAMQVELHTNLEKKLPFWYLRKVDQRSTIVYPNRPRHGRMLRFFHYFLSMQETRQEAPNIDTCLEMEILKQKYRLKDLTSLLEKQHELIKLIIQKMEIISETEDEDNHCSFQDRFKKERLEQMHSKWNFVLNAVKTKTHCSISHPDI
# measurement_description: Agonist activity at rat TRPA1 receptor expressed in HEK293 cells assessed as increase in intracellular Ca2+ concentration by spectrofluorimetric analysis relative to allyl isothiocyanate
# Format: cell-based
quantity_name: Efficacy (%)

The cases that follow already have their Efficacy on record.
[
  {
    "mol": "O=C(N1CCCCC1)n1nnnc1Cc1ccc(-c2ccccc2)cc1",
    "quantity_name": "Efficacy",
    "observed_value": 106
  },
  {
    "mol": "Cc1cccc(-c2ccc(Cc3nnnn3C(=O)N(C)C)cc2)c1",
    "quantity_name": "Efficacy",
    "observed_value": 233
  }
]

[P] Cc1ccc(-c2ccc(Cc3nnn(C(=O)N(C)C)n3)cc2)cc1
[Q] CN(C)C(=O)n1nnnc1Cc1ccc(-c2ccc(O)cc2)cc1
[R] CN(C)C(=O)n1nnc(Cc2ccc(-c3ccc(CO)cc3)cc2)n1
Rank entries according to their Efficacy, from the largest number down. List labels; respect the requested ordering.
P, R, Q
(P: 275%, R: 67.3%, Q: 40.5%)
